Tested on: CtBP / adenovirus E1A interaction (AlphaScreen)
Test: qHTS Assay for Inhibitors of the CtBP/E1A Interaction; further: on the % scale 0 is the no-effect control and ±100 the full control effect
Conditions: AlphaScreen GST-E1A/His-CtBP binding, 1536-well; stronger effect = lower value
Out of some 340,000 compounds screened, about 1,700 (0.5%) were called active. Not shown: some 2% with an inconclusive outcome. Many of the other results were omitted from the sample, so actives are more common in it than they were.
Recorded activity change for the following compounds
Field format: number, assumed %, no unit text.

Worked cases, answers included:
- O=C(N/N=C/c1cc([N+](=O)[O-])ccc1O)/C(=C\c1cccs1)NC(=O)c1ccccc1: -94.1
- CCC(C(=O)OCCN(CC)CC)c1ccccc1 (stereo unspecified): -0.583
- Cc1cccc(-n2cnc(C(=O)Nc3cccnc3)c2)n1: 3.1
- COc1ccc(CC(N)c2csc(NC(=O)Nc3ccc(C(C)C)cc3)n2)cc1 (stereo unspecified): -13.2
- COc1ccc(OCC(=O)Nc2ccc(NC(=O)c3ccco3)c(C)c2)cc1: -2.52

// recorded activity change for "COc1ccc(CC(=O)Nc2ccccc2NC(=O)c2ccco2)cc1OC" : 5.07

// recorded activity change for "Cn1cc(Cl)c(C(=O)NNC(=S)Nc2cccc(Cl)c2)n1" : -27.4

// recorded activity change for "CC(=NNC(=S)N1CCCCCC1)c1ccccn1" : -89.7

----------
Recorded activity change for the following molecules
Test system: CtBP / adenovirus E1A interaction (AlphaScreen)
Assay: qHTS Assay for Inhibitors of the CtBP/E1A Interaction; further: on the % scale 0 is the no-effect control and ±100 the full control effect
Details: AlphaScreen GST-E1A/His-CtBP binding, 1536-well; stronger effect = lower value
About 1,700 (0.5%) of roughly 340,000 compounds were called active. Another 2% or so got no clear call; they are omitted. The full list was thinned out, with actives kept by preference.
Field format: number, assumed %, no unit text.

- CC1(C(=O)NS(=O)(=O)c2ccc3ccccc3c2)CCN1C(=O)C1(c2ccc(Cl)cc2)CCC1 (configuration not stated): -4.19
- Cc1ccc(S(=O)(=O)CC(=O)Nc2c(C)n(C)n(-c3ccccc3)c2=O)cc1: -13.1
- CSCCC(NC(=O)c1ccco1)C(=O)Nc1cc(C)ccn1 (configuration not stated): 0.873

Moving on to the next molecule.
Record "Cc1c2cnn(CC(=O)NCc3ccccn3)c(=O)c2c(C)n1Cc1ccc(Cl)cc1" ; system CtBP / adenovirus E1A interaction (AlphaScreen); activity change = -67.4

----------
Tested on: CtBP / adenovirus E1A interaction (AlphaScreen)
Assay: qHTS Assay for Inhibitors of the CtBP/E1A Interaction; further: on the % scale 0 is the no-effect control and ±100 the full control effect
Conditions: AlphaScreen GST-E1A/His-CtBP binding, 1536-well; stronger effect = lower value
Screen size: about 340,000 compounds; about 1,700 (0.5%) were called active. Another 2% or so got no clear call; they are omitted. This is one part of a sample in which actives are shown more often than they occur.
Recorded activity change for the following compounds
Field format: number, assumed %, no unit text.

Worked cases, answers included:
• CCN(CC)CCOc1ccc2c(c1)C(=NNC(=O)c1ccccn1)c1cc(OCCN(CC)CC)ccc1-2 = -70.2
• Oc1c(CN2CCN(c3ccc(F)cc3)CC2)cc(Cl)c2cccnc12 = -85.8
• CC(O)(c1cccc(F)c1)c1nc(-c2ccc3c(c2)OCO3)cs1 (stereo not drawn) = 0.33
• Oc1ccc(-c2nc3ccccc3nc2-c2ccc(O)cc2O)c(O)c1 = -12.2
• CNC(=S)N1CCN(c2ccccn2)CC1 = 5.96

// recorded activity change for COc1ccc(C=C2CCC3C(CCCC34OCCO4)C2=O)cc1 (stereo not drawn) : -0.25

// recorded activity change for "Nc1cccc(-c2cncc(N3CCN(Cc4ccccn4)CC3)n2)c1" : 1.71

// recorded activity change for "Cc1cccc(C)c1NC(=O)CN1CCN(c2ccc(F)cc2)CC1" : -4.18

// recorded activity change for "COc1cccc(NC(=S)NCc2ccccn2)c1" : -9.96

// recorded activity change for CCCCCCN1CCN(C2CN(Cc3cn(CCCCCC)nn3)S(=O)(=O)C2)CC1 (stereo not drawn) : 0.678

// recorded activity change for "CC1CCN(C(=O)CSc2nnc(-c3ccco3)n2N)CC1" : 1.76

// recorded activity change for "O=C(Nc1ccc(C(=O)O)cc1)/C(=C/c1ccc([N+](=O)[O-])cc1)NC(=O)c1ccccc1" : -2.48

// recorded activity change for "CC1(C)OC(=O)C2=C(C[C@@H](C3CC3)O[C@H]2CCc2cccc(Cl)c2)O1" : 11.1

// recorded activity change for "Cc1cccc(-n2cnc(C(=O)NNC(=S)Nc3ccccc3)c2)n1" : -91.7

// recorded activity change for "Cc1ccc2cccc([N+](=O)[O-])c2n1" : -11.4

// recorded activity change for "COc1ccc(C/C(C)=N/NC(=O)c2cc(C)oc2C)cc1" : 8.03

// recorded activity change for "Cc1cc(NC(=O)CSc2nnc(-c3ccc(Cl)s3)o2)no1" : -93.2

// recorded activity change for "C/C(CC(=O)Nc1ccc(N(C)C)cc1)=N\NC(=O)c1ccccc1F" : -8.83

// recorded activity change for "Cc1ccc(NC(=O)/C(=C/c2ccc([N+](=O)[O-])cc2)NC(=O)c2ccccc2)cc1" : 4.11

// recorded activity change for "CCCCN(C=O)c1c(CC)nc2c(OCCC3CCCCC3)cccn12" : -11

// recorded activity change for "Cc1ccc(CN2CCN(c3ncccn3)CC2)c(C)c1" : -0.239

// recorded activity change for NC(c1ccccc1)c1csc(NC(=O)Nc2cccc(C(F)(F)F)c2)n1 (stereo not drawn) : -14.2

// recorded activity change for "CCCCCNC(=O)Cc1ccc(OC)cc1" : 12.5

----------
Recorded activity change for the following compounds
System: CtBP / adenovirus E1A interaction (AlphaScreen)
Experiment: qHTS Assay for Inhibitors of the CtBP/E1A Interaction; further: on the % scale 0 is the no-effect control and ±100 the full control effect
Settings: AlphaScreen GST-E1A/His-CtBP binding, 1536-well; stronger effect = lower value
The whole screen tested about 340,000 compounds, of which about 1,700 (0.5%) were called active. Roughly 2% stayed inconclusive and do not appear here. What follows is part of a selection rich in actives, with near analogues and random picks from the rest.
Field format: number, assumed %, no unit text.

- Cc1c(NC(=O)CSc2cccc3cccnc23)c(=O)n(-c2ccccc2)n1C: -87.1

// recorded activity change for "Cc1ccccc1OCCC(=O)Nc1c(C)n(C)n(-c2ccccc2)c1=O" : -0.0402

// recorded activity change for "Cc1ccccc1C#CC1=CC(=O)CC(C)(C)C1" : 5.53

// recorded activity change for "CCOc1ccc(CCN2C(=S)N([C@@H](CC(C)C)CN3CCC[C@@H]3CN3C(=S)NC[C@@H]3Cc3ccc(O)cc3)C[C@@H]2CC(C)C)cc1" : -10.9

// recorded activity change for CC(C)N=C1CCCC1C(=S)SSC(=S)C1CCCC1=NC(C)C (stereo not drawn) : -5.04

// recorded activity change for O=C(CN1C(=O)C2C3C=CC(C3)C2C1=O)NCCc1ccccc1Cl (stereo not drawn) : 12.6

// recorded activity change for "COc1ccc(-c2coc3c(C(=O)NC(C)C)cccc23)c(C)c1" : -12.9

// recorded activity change for "Cc1ccc(C(=O)Oc2coc(CSc3nnc(NC(=O)c4cccs4)s3)cc2=O)cc1C" : -16.7
